Target chain: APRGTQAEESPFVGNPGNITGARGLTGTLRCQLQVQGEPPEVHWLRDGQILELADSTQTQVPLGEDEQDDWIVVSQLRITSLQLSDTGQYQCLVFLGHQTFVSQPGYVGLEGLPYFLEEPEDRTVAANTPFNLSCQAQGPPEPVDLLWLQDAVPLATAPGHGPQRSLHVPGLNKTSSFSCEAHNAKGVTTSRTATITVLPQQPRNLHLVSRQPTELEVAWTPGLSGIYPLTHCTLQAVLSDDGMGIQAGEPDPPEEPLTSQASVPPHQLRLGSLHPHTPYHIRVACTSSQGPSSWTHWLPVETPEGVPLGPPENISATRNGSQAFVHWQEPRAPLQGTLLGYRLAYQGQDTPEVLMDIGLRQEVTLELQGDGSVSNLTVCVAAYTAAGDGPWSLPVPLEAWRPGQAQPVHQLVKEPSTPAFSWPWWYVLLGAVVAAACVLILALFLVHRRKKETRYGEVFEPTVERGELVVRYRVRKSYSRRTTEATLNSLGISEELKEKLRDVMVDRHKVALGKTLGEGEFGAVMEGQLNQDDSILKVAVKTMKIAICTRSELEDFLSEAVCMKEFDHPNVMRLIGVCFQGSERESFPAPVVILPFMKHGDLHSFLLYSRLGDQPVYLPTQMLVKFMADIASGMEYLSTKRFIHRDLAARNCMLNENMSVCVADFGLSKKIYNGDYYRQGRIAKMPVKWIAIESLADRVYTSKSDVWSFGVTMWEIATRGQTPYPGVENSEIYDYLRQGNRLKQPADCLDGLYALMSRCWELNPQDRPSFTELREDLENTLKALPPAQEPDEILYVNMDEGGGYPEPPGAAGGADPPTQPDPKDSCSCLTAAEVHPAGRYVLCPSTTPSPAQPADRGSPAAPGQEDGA
pKd: −log10 of the molar value.
RECORDED ENDPOINT: pKd

COMPOUND: CCOc1cn(CC2CCCN(C)C2)nc1C(=O)Nc1ccc(Oc2ccnc3cc(OC)c(OC)cc23)cc1F (stereo not drawn) [Compound 214]
READOUT VALUE: 6.00 to 7.00

COMPOUND: CCOc1cn(-c2ccn(C)c2)nc1C(=O)Nc1ccc(Oc2ccnc3cc(OC)c(OC)cc23)cn1 [Compound 56]
READOUT VALUE: > 7.00

COMPOUND: COc1cc2nccc(Oc3ccc(NC(=O)c4nn(-c5ccc(F)cc5N5CCOCC5)cc4OCC4CC4)nc3)c2cc1OC [Compound 266]
READOUT VALUE: > 7.00

COMPOUND: CCOc1cn(-c2ccc(F)cc2F)nc1C(=O)Nc1ccc(Oc2ccnc3cc(OC)c(OC)cc23)cn1 [Compound 107]
READOUT VALUE: > 7.00

COMPOUND: CCOc1cn(-c2c(C)cc(OC)cc2C)nc1C(=O)Nc1ccc(Oc2ccnc3cc(OC)c(OC)cc23)cn1 [Compound 92]
READOUT VALUE: > 7.00

COMPOUND: CCOc1cn(-c2ccc(F)c(CN(C)C)c2)nc1C(=O)Nc1ccc(Oc2ccnc3cc(OC)c(OC)cc23)cn1 [Compound 124]
READOUT VALUE: > 7.00

###

Please consider the recorded Kd for Met (Homo sapiens, UniProt P08581) in what follows.
RECORDED ENDPOINT: Kd

MOLECULE: CCOc1cn(-c2cnc(N)cc2C)nc1C(=O)Nc1ccc(Oc2ccnc3cc(OC)c(OC)cc23)cn1 [Compound 137]
READOUT VALUE: < 100 nM
//
MOLECULE: COc1cc2nccc(Oc3ccc(NC(=O)c4nn(-c5ccc(F)c(Cl)c5)cc4OCC(F)(F)F)nc3)c2cc1OC [Compound 278]
READOUT VALUE: 100 to 1000 nM
//
MOLECULE: CCOc1cn(-c2ccc(C#N)nc2)nc1C(=O)Nc1ccc(Oc2ccnc3cc(OC)c(OC)cc23)cn1 [Compound 50]
READOUT VALUE: ≥ 1000 nM
//
MOLECULE: CCOc1cn(-c2cnc(C#N)cn2)nc1C(=O)Nc1ccc(Oc2ccnc3cc(OC)c(OC)cc23)cn1 [Compound 54]
READOUT VALUE: ≥ 1000 nM
//
MOLECULE: CCOc1cn(-c2cncnc2C)nc1C(=O)Nc1ccc(Oc2ccnc3cc(OC)c(OC)cc23)cn1 [Compound 149]
READOUT VALUE: < 100 nM
//
MOLECULE: CCOc1cn(-c2nccnc2C(C)(C)O)nc1C(=O)Nc1ccc(Oc2ccnc3cc(OC)c(OC)cc23)cn1 [Compound 200]
READOUT VALUE: < 100 nM
//
MOLECULE: CCOc1cn(-c2ccc(Cl)cc2C(F)(F)F)nc1C(=O)Nc1ccc(Oc2ccnc3cc(OC)c(OC)cc23)cn1 [Compound 101]
READOUT VALUE: < 100 nM
//
MOLECULE: CCOc1cn(-c2cnc(N)nc2)nc1C(=O)Nc1ccc(Oc2ccnc3cc(OC)c(OC)cc23)c(F)c1 [Compound 141]
READOUT VALUE: < 100 nM
//
MOLECULE: COc1cc2nccc(Oc3ccc(NC(=O)c4nn(-c5cnc(N)cn5)cc4OCC(F)(F)F)c(F)c3)c2cc1OC [Compound 252]
READOUT VALUE: ≥ 1000 nM
//
MOLECULE: CCOc1cn(-c2cccnc2C)nc1C(=O)Nc1ccc(Oc2ccnc3cc(OC)c(OC)cc23)cn1 [Compound 23]
READOUT VALUE: < 100 nM
//
MOLECULE: CCOc1cn(Cc2cnccc2C)nc1C(=O)Nc1ccc(Oc2ccnc3cc(OC)c(OC)cc23)cc1F [Compound 226]
READOUT VALUE: < 100 nM
//
MOLECULE: CCOc1cn(-c2cnccc2C#N)nc1C(=O)Nc1ccc(Oc2ccnc3cc(OC)c(OC)cc23)cn1 [Compound 147]
READOUT VALUE: < 100 nM
//
MOLECULE: COc1cc2nccc(Oc3ccc(NC(=O)c4nn(-c5ccc(OC(F)(F)F)cc5Cl)cc4OCC(F)(F)F)nc3)c2cc1OC [Compound 186]
READOUT VALUE: 100 to 1000 nM
